B1: Azoarcus group I ribozyme (parent)
chain: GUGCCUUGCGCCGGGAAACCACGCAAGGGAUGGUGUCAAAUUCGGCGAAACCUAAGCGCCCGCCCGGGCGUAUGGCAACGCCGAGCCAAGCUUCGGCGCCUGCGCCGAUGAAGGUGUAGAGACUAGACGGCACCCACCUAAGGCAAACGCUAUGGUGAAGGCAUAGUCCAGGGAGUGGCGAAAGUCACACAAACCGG

Variants of: B1
experiment.summary: reverse-splicing fitness (ratio to wild type); higher = more active; in vitro selection; Mg2+ level not given
Label not fulfilled if reverse-splicing fitness falls below 0.01; label fulfilled in every other case.

Query: Please check the record C82U A111C A120G A145C C150U U176G and state if its reverse-splicing fitness is at or above 0.01.
Response: not fulfilled

Query: Please check the record C82A A111U C169G U176G and state if its reverse-splicing fitness is at or above 0.01.
Response: not fulfilled

Query: Check the entry C82A A120G A145U C150A U176C : does reverse-splicing fitness equal or exceed 0.01?
Response: fulfilled

Query: Record C82G A120G A145U C150A C169G U176C ; criterion: reverse-splicing fitness no lower than 0.01. Met?
Response: fulfilled

Query: Is reverse-splicing fitness at least 0.01? Consider C82U A111U A145C C150A C169A
Response: not fulfilled

Query: Answer whether reverse-splicing fitness of C82G A111C A145C U176C is greater than or equal to 0.01.
Response: fulfilled

Query: Threshold query (reverse-splicing fitness >= 0.01) on C82U A120G C150U C169A U176G
Response: not fulfilled

Query: Identify whether the reported reverse-splicing fitness of the following variant is 0.01 or greater: C82A A111G A120C C150U C169G
Response: not fulfilled

Query: Answer whether reverse-splicing fitness of C82G A111C A120G A145C C150G is greater than or equal to 0.01.
Response: not fulfilled

Query: # bool: reverse-splicing fitness of A111U A120C A145G C150A C169G U176A >= 0.01
Response: fulfilled

Query: # check: reverse-splicing fitness of C82U A111C A120G C150G C169U U176A is greater than or equal to 0.01
Response: not fulfilled

Query: In plain terms: is recorded reverse-splicing fitness at least 0.01 for C82G A111G A120U A145G U176A ?
Response: fulfilled

Query: Kindly determine if reverse-splicing fitness recorded for A111G A145C C150A C169U U176G is above or exactly 0.01.
Response: not fulfilled

Query: Exam item: decide whether the reported reverse-splicing fitness for A111U A120U A145C C150U C169A is at least 0.01.
Response: not fulfilled

Query: Please indicate if the recorded reverse-splicing fitness for A111U A120C A145U C150A C169G U176G meets or exceeds 0.01.
Response: not fulfilled

Query: Has C82U A111U A120U A145G C150U C169U a recorded reverse-splicing fitness greater than or equal to 0.01?
Response: not fulfilled

Query: Tell me whether reverse-splicing fitness is at least 0.01 here: A111C A120G A145U U176C
Response: fulfilled

Query: Is reported reverse-splicing fitness greater than or equal to 0.01 here: C82U A111G A120C A145G C150U C169A U176G
Response: not fulfilled

Query: Can C82U A111U A120G A145U C150G U176C be said to have reverse-splicing fitness at or above 0.01?
Response: not fulfilled

Query: hey, is reverse-splicing fitness for this one >= 0.01? C82A A111C A145G C150G C169U U176C
Response: fulfilled

Query: Exam item: decide whether the reported reverse-splicing fitness for A120C C150G C169G U176C is at least 0.01.
Response: not fulfilled
